# targetDesc: human TLR7 (Homo sapiens, UniProt Q9NYK1)
# Sequence (Q9NYK1 27-1049): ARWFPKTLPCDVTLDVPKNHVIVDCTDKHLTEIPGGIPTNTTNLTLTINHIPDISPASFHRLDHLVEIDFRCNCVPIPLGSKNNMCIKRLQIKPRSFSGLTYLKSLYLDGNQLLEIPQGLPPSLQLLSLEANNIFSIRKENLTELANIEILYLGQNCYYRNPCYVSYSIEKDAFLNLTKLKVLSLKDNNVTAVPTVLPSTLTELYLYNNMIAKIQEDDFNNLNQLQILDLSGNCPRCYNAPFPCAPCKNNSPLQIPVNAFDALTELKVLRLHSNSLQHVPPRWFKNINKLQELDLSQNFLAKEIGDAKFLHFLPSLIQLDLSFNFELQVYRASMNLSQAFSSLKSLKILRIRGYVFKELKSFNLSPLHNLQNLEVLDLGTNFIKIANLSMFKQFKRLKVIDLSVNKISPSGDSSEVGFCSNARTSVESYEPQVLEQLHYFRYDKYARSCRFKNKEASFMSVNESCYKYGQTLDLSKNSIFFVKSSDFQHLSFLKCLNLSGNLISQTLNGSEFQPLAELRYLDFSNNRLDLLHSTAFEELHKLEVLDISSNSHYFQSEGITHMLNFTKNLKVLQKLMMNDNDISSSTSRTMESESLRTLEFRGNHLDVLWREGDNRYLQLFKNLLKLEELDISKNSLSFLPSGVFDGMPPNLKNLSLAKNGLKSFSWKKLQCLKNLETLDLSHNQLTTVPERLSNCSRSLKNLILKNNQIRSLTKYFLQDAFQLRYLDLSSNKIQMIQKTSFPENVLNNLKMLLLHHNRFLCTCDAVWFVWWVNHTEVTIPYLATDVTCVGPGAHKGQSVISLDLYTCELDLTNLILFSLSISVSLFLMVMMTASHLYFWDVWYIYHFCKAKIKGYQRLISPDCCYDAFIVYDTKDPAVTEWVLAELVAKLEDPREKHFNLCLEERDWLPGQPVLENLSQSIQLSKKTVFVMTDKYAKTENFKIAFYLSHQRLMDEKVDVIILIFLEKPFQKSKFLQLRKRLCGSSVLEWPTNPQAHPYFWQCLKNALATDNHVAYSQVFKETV
# assayName: TLR7 inhibition reporter assay (HEK-Blue cells, SEAP reporter)
# conditionContext: HEK-Blue cells overexpressing human TLR7, stimulated with gardiquimod 7.5 μM, 22 hour incubation
pIC50: −log10 of the molar value.
measureName: pIC50

// solved cases for pIC50 follow
> print(dat)
                                    compound                                targetdesc  readoutvalue
 1  Cc1nc(-c2ccc(C3CCN(CCCO)CC3)cc2)cc2c1cc(-c1ccc(S(C)(=O)=O)cc1)n2C [Example 41]  human TLR7 (Homo sapiens, UniProt Q9NYK1)          5.31
 2  Cc1nc(-c2ccc(C3(O)CCN(C(C)C)CC3)cc2F)cc2c1cc(-c1ccc(S(C)(=O)=O)cc1)n2C [Example 109]  human TLR7 (Homo sapiens, UniProt Q9NYK1)          5.89
 3  CC(C)N1CCN(c2ccc(-c3cc4c(cn3)cc(-c3ccc(S(C)(=O)=O)cc3)n4C)cc2)CC1 [Example 54]  human TLR7 (Homo sapiens, UniProt Q9NYK1)          5.34
 4  COc1ccc(-c2c(C)n(C)c3cnc(-c4ccc(N5CCN(CCC(C)(C)O)CC5)cc4)cc23)cc1OC [Example 33]  human TLR7 (Homo sapiens, UniProt Q9NYK1)          5.49
 5  Cc1nc(-c2ccc(CN3CCN(CCC(C)(C)O)CC3)cc2)cc2c1cc(-c1ccc(S(C)(=O)=O)cc1)n2C(F)F [Example 117]  human TLR7 (Homo sapiens, UniProt Q9NYK1)          5.11
 6  Cc1nc(-c2ccc(C3(O)CC4CCC(C3)N4C(C)C)c(F)c2)cc2c1cc(-c1ccc(S(C)(=O)=O)cc1)n2C (centres unmarked) [Example 100]  human TLR7 (Homo sapiens, UniProt Q9NYK1)          5.15
 7  Cc1nc(-c2ccc(C3(O)CCN(C(C)(C)C)CC3)c(F)c2)cc2c1cc(-c1ccc(S(C)(=O)=O)cc1)n2C [Example 104]  human TLR7 (Homo sapiens, UniProt Q9NYK1)          5.66
 8  Cc1nc(-c2ccc([C@@]3(O)CCN(C(C)C)C(C)(C)C3)c(F)c2)cc2c1cc(-c1ccc(S(C)(=O)=O)cc1)n2C [Example 105]  human TLR7 (Homo sapiens, UniProt Q9NYK1)          5.96
 9  Cc1nc(-c2ccc(CN3CCC(C)(O)CC3)cc2)cc2c1cc(-c1ccc(S(C)(=O)=O)cc1)n2C [Example 59]  human TLR7 (Homo sapiens, UniProt Q9NYK1)          4.89
10  COc1ccc(-c2c(C)[nH]c3cnc(C4CCN(C(=O)CN(C)C)CC4)cc23)cc1OC [Example 22]  human TLR7 (Homo sapiens, UniProt Q9NYK1)          5.01

(a) CC(C)(O)CN1CC2CCC(C1)N2Cc1ccc(-c2cc3c(cn2)cc(-c2ccc(S(C)(=O)=O)cc2)n3C2CC2)cc1 [Example 130]
(b) CCN1C2CCC1CC(O)(c1ccc(-c3cc4c(cc(-c5ccc(S(C)(=O)=O)cc5)n4C)c(C)n3)cc1F)C2 (centres unmarked) [Example 101]
*Q* Min pIC50? a | b # answer = label of selected item
*A* b
(b: 5.24, a: 5.72)

(a) Cc1nc(-c2cc(F)c(C3(O)CCN(C4CC4)CC3)cc2F)cc2c1cc(-c1ccc(S(C)(=O)=O)cc1)n2C [Example 96]
(b) COc1ccc(-c2c(C)n(C)c3cnc(C4CCN(C5CCN(C(=O)C(C)C)CC5)CC4)cc23)cc1OC [Example 18]
*Q* Which shows the larger pIC50 value: a or b ? # answer = label of selected item
*A* a
